Where these numbers come from: ChEMBL document CHEMBL2146431

assayInfo: Selectivity ratio of CC50 for african green monkey Vero cells to EC50 for acyclovir-resistant HSV1 L2
Assay type: ADME, cell-based
measurementConditions: read-out: Ratio CC50/EC50
Provide the reported selectivity ratio of each item.

Exercise: What selectivity ratio value was documented for this compound, Nc1nc2c(ncn2COCCO)c(=O)[nH]1 ?
Key: > 3.8

Exercise: What selectivity ratio value was documented for this compound, Nc1nc(=O)c2ncn(COCCOP(=O)(O)O)c2[nH]1 ?
Key: > 49

Exercise: What selectivity ratio value was documented for this compound, CCCN(CCC)P(=O)(O)OCCOCn1cnc2c(=O)[nH]c(N)nc21.N ?
Key: > 54

Exercise: What selectivity ratio value was documented for this compound, N.Nc1nc2c(ncn2COCCOP(=O)(O)N2CCOCC2)c(=O)[nH]1 ?
Key: > 80

====

assayInfo: Selectivity ratio of CC50 for african green monkey Vero cells to EC50 for HSV1 L2
Assay type: ADME, cell-based
measurementConditions: read-out: Ratio CC50/EC50
quantityName: selectivity ratio

Exercise: What selectivity ratio value was documented for this compound, N.Nc1nc2c(ncn2COCCOP(=O)(O)N2CCOCC2)c(=O)[nH]1 ?
Key: > 206

Exercise: What selectivity ratio value was documented for this compound, Nc1nc(=O)c2ncn(COCCOP(=O)(O)O)c2[nH]1 ?
Key: > 100

Exercise: What selectivity ratio value was documented for this compound, CCCN(CCC)P(=O)(O)OCCOCn1cnc2c(=O)[nH]c(N)nc21.N ?
Key: > 133

Exercise: What selectivity ratio value was documented for this compound, Nc1nc2c(ncn2COCCO)c(=O)[nH]1 ?
Key: > 1180

====

assayInfo: Half life of the compound in phosphate buffer at pH 7.4 assessed as acyclovir formation by TLC analysis
Format: physicochemical
quantityName: t1/2 (h)
A number alone suffices; assume h.

Exercise: What t1/2 value was documented for this molecule, CCCCCCNP(=O)(NCCCCCC)OCCOCn1cnc2c(=O)[nH]c(N)nc21 ?
Key: 5

Exercise: What t1/2 value was documented for this molecule, Nc1nc2c(ncn2COCCOP(=O)(N2CCCC2)N2CCCC2)c(=O)[nH]1 ?
Key: 18

Exercise: What t1/2 value was documented for this molecule, Nc1nc2c(ncn2COCCOP(N)(N)=O)c(=O)[nH]1 ?
Key: 4
